Molecular target: Histone deacetylase 1 (Homo sapiens)
Sequence (Q13547 whole entry): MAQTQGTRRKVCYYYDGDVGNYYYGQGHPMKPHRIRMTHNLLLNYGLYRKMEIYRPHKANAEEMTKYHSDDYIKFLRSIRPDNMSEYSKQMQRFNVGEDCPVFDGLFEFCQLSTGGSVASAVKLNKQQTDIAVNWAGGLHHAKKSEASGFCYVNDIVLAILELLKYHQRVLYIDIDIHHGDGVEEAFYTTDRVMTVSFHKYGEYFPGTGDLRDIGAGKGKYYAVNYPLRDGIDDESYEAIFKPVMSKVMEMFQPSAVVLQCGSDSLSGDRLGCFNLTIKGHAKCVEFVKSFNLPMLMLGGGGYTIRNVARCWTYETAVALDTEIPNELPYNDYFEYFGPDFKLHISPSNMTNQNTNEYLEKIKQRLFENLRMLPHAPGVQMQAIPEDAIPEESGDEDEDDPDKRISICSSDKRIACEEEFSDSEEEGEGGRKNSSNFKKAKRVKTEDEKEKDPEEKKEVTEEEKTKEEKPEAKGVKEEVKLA
Assay: Inhibition of recombinant HDAC1 assessed as inhibition of fluorogenic aminocoumarin release from substrate by trypsin-coupled biochemical assay
endpoint.label: IC50

Cc1cc(O)nc(SCC(=O)C(C)(C)C)n1 ... > 100 µM
Cc1cc(=O)[nH]c(SCC(=O)NCCCCc2ccccc2)n1 ... > 100 µM
Cc1cc(=O)[nH]c(SCC(=O)c2ccc(C(C)(C)C)cc2)n1 ... > 100 µM
CC(=O)Nc1ccc(C(=O)COc2cc(C)cc(=O)[nH]2)cc1 ... > 100 µM
Cc1cc(=O)[nH]c(SCC(=O)c2ccc3c(c2)OCCO3)n1 ... > 100 µM
CC(=O)N(C)c1ccc(C(=O)CSc2nc(C)cc(O)n2)cc1 ... > 100 µM
CCOC(=O)CC(=O)CSc1nc(C)cc(O)n1 ... 77.2 µM
CC(=O)Nc1ccc(C(=O)CSc2nc(C)cc(O)n2)cc1 ... 16.4 µM

**Query** Look up IC50: Cc1cc(O)nc(SCC(=O)c2ccc(O)c(O)c2)n1
**Result** > 100 µM

**Query** Same lookup for COc1ccc(C(=O)CSc2nc(C)cc(O)n2)cc1 , please.
**Result** > 100 µM

**Query** Same lookup for CC(=O)CSc1nc(C)cc(=O)[nH]1 , please.
**Result** > 100 µM

**Query** Same lookup for Cc1cc(O)nc(SCC(=O)NCCc2ccccc2)n1 , please.
**Result** > 100 µM

**Query** Same lookup for CC(=O)Nc1ccc(C(=O)CSc2nccc(C)n2)cc1 , please.
**Result** > 100 µM

**Query** Same lookup for Cc1cc(O)nc(SCC(=O)c2ccc(Cl)cc2)n1 , please.
**Result** 82.3 µM

**Query** Same lookup for CC(=O)Nc1ccc(C(=O)CSc2nc(C)cc(C)n2)cc1 , please.
**Result** > 100 µM

**Query** Same lookup for CC(=O)Nc1ccc(C(O)CSc2nc(C)cc(O)n2)cc1 (stereo unspecified) , please.
**Result** > 100 µM

**Query** Same lookup for CC(=O)Nc1ccc(CSc2nc(C)cc(O)n2)cc1 , please.
**Result** > 100 µM

**Query** Same lookup for Cc1cc(=O)[nH]c(SCC(=O)NCCCCCCc2ccccc2)n1 , please.
**Result** > 100 µM

**Query** Same lookup for COc1cc(C)nc(SCC(=O)c2ccc(NC(C)=O)cc2)n1 , please.
**Result** > 100 µM

**Query** Same lookup for CC(=O)Nc1ccc(C(=O)CSc2cccc(O)c2)cc1 , please.
**Result** > 100 µM

* * *

Molecular target: Protein deacetylase HDAC6 (Homo sapiens, UniProt Q9UBN7)
Sequence (Q9UBN7 whole entry): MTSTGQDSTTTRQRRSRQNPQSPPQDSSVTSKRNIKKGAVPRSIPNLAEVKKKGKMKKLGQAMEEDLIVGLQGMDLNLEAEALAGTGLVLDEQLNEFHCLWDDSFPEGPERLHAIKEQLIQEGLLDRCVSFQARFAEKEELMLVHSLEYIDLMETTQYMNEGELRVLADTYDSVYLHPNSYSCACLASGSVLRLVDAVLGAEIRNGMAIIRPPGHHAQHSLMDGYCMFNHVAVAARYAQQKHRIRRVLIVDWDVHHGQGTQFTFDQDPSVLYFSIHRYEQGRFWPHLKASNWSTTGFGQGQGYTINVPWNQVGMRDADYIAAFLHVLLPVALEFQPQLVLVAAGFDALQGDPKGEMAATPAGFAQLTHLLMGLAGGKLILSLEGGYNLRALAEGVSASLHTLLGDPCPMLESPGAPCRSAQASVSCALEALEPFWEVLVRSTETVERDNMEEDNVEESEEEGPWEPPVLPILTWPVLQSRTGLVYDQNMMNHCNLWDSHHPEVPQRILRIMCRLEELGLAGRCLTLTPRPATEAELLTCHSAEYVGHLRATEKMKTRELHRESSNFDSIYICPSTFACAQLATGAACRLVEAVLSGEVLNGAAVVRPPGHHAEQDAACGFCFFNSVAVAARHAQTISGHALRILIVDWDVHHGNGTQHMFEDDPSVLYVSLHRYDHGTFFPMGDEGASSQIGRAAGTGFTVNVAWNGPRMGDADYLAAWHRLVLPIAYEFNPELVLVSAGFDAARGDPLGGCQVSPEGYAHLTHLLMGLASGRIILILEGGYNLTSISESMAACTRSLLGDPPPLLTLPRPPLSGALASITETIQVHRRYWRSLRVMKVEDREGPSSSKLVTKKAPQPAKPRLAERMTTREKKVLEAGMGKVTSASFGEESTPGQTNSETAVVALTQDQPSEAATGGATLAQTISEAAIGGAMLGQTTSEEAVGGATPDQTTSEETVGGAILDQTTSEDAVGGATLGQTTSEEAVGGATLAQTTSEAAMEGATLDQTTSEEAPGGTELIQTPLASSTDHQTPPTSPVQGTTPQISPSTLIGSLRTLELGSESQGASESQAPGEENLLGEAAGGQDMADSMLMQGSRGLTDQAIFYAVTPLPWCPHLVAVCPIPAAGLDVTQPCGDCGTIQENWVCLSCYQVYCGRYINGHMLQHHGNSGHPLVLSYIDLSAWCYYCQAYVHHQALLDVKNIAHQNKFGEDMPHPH
Assay: Inhibition of recombinant HDAC6 assessed as inhibition of fluorogenic aminocoumarin release from substrate by trypsin-coupled biochemical assay
Listed here: items and their measured IC50.

# count of solved cases: 5
Cc1cc(=O)[nH]c(SCC(=O)NCCCCCCc2ccccc2)n1 ... > 100 µM
CC(=O)Nc1ccc(C(O)CSc2nc(C)cc(O)n2)cc1 (stereo unspecified) ... > 100 µM
CCOC(=O)CC(=O)CSc1nc(C)cc(O)n1 ... 7.2 µM
CC(=O)Nc1ccc(C(=O)COc2cc(C)cc(=O)[nH]2)cc1 ... > 100 µM
CC(=O)Nc1ccc(C(=O)CSc2nc(C)cc(C)n2)cc1 ... > 100 µM

**Query** Look up IC50: Cc1cc(=O)[nH]c(SCC(=O)NCCCCc2ccccc2)n1
**Result** > 100 µM

**Query** Same lookup for Cc1cc(O)nc(SCC(=O)c2ccccc2)n1 , please.
**Result** > 100 µM

**Query** Same lookup for Cc1cc(=O)[nH]c(SCC(=O)c2ccc3c(c2)OCCO3)n1 , please.
**Result** > 100 µM

**Query** Same lookup for Cc1cc(=O)[nH]c(SCC(=O)c2ccc(C(C)(C)C)cc2)n1 , please.
**Result** > 100 µM

**Query** Same lookup for Cc1cc(O)nc(SCC(=O)C(C)(C)C)n1 , please.
**Result** > 100 µM

**Query** Same lookup for COc1cc(C)nc(SCC(=O)c2ccc(NC(C)=O)cc2)n1 , please.
**Result** > 100 µM

**Query** Same lookup for CC(=O)N(C)c1ccc(C(=O)CSc2nc(C)cc(O)n2)cc1 , please.
**Result** > 100 µM

**Query** Same lookup for COc1ccc(C(=O)CSc2nc(C)cc(O)n2)cc1 , please.
**Result** 60.9 µM

**Query** Same lookup for CC(=O)Nc1ccc(C(=O)COc2nc(C)cc(O)n2)cc1 , please.
**Result** 88 µM

**Query** Same lookup for CC(=O)Nc1ccc(CSc2nc(C)cc(O)n2)cc1 , please.
**Result** > 100 µM

**Query** Same lookup for Cc1cc(=O)[nH]c(SCC(=O)c2ccc(O)cc2)n1 , please.
**Result** 40.1 µM

**Query** Same lookup for Cc1cc(O)nc(SCC(=O)c2ccc(O)c(O)c2)n1 , please.
**Result** 16.7 µM

**Query** Same lookup for CC(=O)Nc1ccc(C(=O)CSc2nc(C)cc(O)n2)cc1 , please.
**Result** 11.2 µM

**Query** Same lookup for Cc1cc(O)nc(SCC(=O)NCCc2ccccc2)n1 , please.
**Result** > 100 µM

**Query** Same lookup for CC(=O)Nc1ccc(C(=O)CSc2cccc(O)c2)cc1 , please.
**Result** > 100 µM

**Query** Same lookup for Cc1cc(=O)[nH]c(SCC(=O)c2ccc(NC(=O)c3ccccc3)cc2)n1 , please.
**Result** 10.8 µM

**Query** Same lookup for CC(=O)Nc1ccc(C(=O)CSc2nccc(C)n2)cc1 , please.
**Result** > 100 µM
